tested-on: MtbCBS (Mycobacterium tuberculosis cystathionine β-synthase) (Mycobacterium tuberculosis, UniProt P9WP51)
Sequence (P9WP51 1-464): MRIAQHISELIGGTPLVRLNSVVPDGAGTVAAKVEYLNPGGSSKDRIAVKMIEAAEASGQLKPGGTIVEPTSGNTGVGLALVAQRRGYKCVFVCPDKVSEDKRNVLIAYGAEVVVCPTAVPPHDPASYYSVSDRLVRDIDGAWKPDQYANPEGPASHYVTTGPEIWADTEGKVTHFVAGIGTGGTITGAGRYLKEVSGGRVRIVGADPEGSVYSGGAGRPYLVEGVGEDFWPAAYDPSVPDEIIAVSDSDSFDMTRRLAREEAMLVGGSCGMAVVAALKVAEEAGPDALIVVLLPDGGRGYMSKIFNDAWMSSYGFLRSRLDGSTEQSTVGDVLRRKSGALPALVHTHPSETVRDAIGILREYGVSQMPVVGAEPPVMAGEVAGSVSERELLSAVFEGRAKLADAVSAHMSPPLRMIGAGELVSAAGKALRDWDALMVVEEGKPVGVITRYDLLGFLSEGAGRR
pIC50: −log10 of the molar value.
readout-name: pIC50

Noted for `NOCC(=O)O` : its pIC50 reads ~4.00
